PROCEDURE DETAILS: Tmax of aliskiren hemifumarate following 2 week oral dosing of aliskiren hemifumarate at 100 mg.Kg-1 level studied on day 14 in male Callithrix jacchus
Type: ADME, organism-based
REPORTED CONDITIONS: marmoset, plasma
OUTCOME MEASURE: Tmax (h)
Quick note: give the figure in h, leave out the unit.

Q. Give the measured Tmax of COCCCOc1cc(C[C@@H](C[C@H](N)[C@@H](O)C[C@H](C(=O)NCC(C)(C)C(N)=O)C(C)C)C(C)C)ccc1OC.COCCCOc1cc(C[C@@H](C[C@H](N)[C@@H](O)C[C@H](C(=O)NCC(C)(C)C(N)=O)C(C)C)C(C)C)ccc1OC.O=C(O)/C=C/C(=O)O [ALISKIREN FUMARATE] .
A. 2
